# Test system: Muscarinic acetylcholine receptor M1
# Run description: M1 muscarinic receptor agonists, primary screen, CHO-M1 cells, Fluo-4 calcium, agonist mode (AID 626)
# Run parameters: Fluo-4 calcium fluorescence, at 10 µM, stronger effect = higher value
Hit rate of the full screen: of about 64,000 compounds, about 1,900 (3%) were called active. What follows is part of a selection rich in actives, with near analogues and random picks from the rest.
Parameter: B-score

Compound: CCOC(=O)N1CCC(C(N)=O)CC1
Parameter: B-score
Observed measurement: -0.221
//
Compound: Oc1c(C(c2ccco2)N2CCC3(CC2)OCCO3)sc2ncnn12 (centres undefined)
Parameter: B-score
Observed measurement: -0.563
//
Compound: CC1CCCCN1CC(=O)NCc1ccc2c(c1)OCO2 (centres undefined)
Parameter: B-score
Observed measurement: -0.147
//
Compound: Cc1ccc(C(c2sc3nc(C)nn3c2O)N2CCN(c3ccccc3)CC2)cc1 (centres undefined)
Parameter: B-score
Observed measurement: -0.274
//
Compound: O=C(Nc1c(-c2ccccc2)nc2c(Br)cc(Br)cn12)c1ccco1
Parameter: B-score
Observed measurement: 1.35
//
Compound: CCc1ccc(N(CC)c2ncnc3nc[nH]c23)cc1
Parameter: B-score
Observed measurement: 0.205
//
Compound: Cc1ccc(Cc2nc(-c3cccc(C)c3)no2)cc1
Parameter: B-score
Observed measurement: -0.177
//
Compound: CC(C)C[C@H](NC(=O)Nc1cccc(C(F)(F)F)c1)C(=O)O
Parameter: B-score
Observed measurement: 0.0481
//
Compound: CN1CCN(S(=O)(=O)c2ccc(NC(=O)c3ccco3)cc2)CC1
Parameter: B-score
Observed measurement: 0.741
//
Compound: FC(F)(F)COc1nc(N2CCCCC2)nc(N2CCNCC2)n1
Parameter: B-score
Observed measurement: 6.73
//
Compound: Cc1ccc(-c2noc(CN3CCN(Cc4ccccc4)CC3)n2)cc1
Parameter: B-score
Observed measurement: -0.531
//
Compound: CCC(=O)Nc1ccc(C(=O)Nc2ccc3c(c2)C(=O)N(CC2CCCO2)C3=O)cc1 (centres undefined)
Parameter: B-score
Observed measurement: 0.81
//
Compound: CCCc1cc(=O)oc2c(C)c(O)c(CN3CCCCC3)cc12
Parameter: B-score
Observed measurement: 0.177
//
Compound: CCOC(=O)c1ccc(NC(=O)Cn2nnc(-c3ccc(C)cc3)n2)cc1
Parameter: B-score
Observed measurement: -0.837
//
Compound: CCOC(=O)CNC(=O)CN1C(=O)CCSc2ccccc21
Parameter: B-score
Observed measurement: -0.158
//
Compound: CCOc1cc(C2C(C(=O)OC)=CN(C3CCCC3)C=C2C(=O)OC)cc(Br)c1O
Parameter: B-score
Observed measurement: -0.323
//
Compound: Cc1cc(=O)cc(C)[nH]1
Parameter: B-score
Observed measurement: -0.0108
//
Compound: c1ccc(-c2oc3ncnc(N4CCOCC4)c3c2-c2ccccc2)cc1
Parameter: B-score
Observed measurement: -0.65
//
Compound: CC(=O)Nc1ccc(S(=O)(=O)N2CCN(CCCOc3cc(C)ccc3C)CC2)cc1
Parameter: B-score
Observed measurement: -0.692
